From: PubChem BioAssay AID330

Tested on: P388 leukemia ip, CD2F1 mice, survival T/C
Test: NCI In Vivo Anticancer Drug Screen. Data for tumor model P388 Leukemia (intraperitoneal) in CD2F1 (CDF1) mice
Conditions: endpoint: median survival time; dose: 100.0 mg/kg/injection; schedule: Q01DX005 (ip); vehicle: saline; higher = longer survival
Inconclusive results and toxic doses are left out.
parameter: T/C

T/C recorded for this compound, CC1CN(Cc2ccccc2)CCC1N1CCCCC1 (stereo not drawn) , is 100 % of control

For reference, reported T/C for CC(=O)SC1(C(C(N)=S)c2ccccc2)CCN(C)CC1 (stereo not drawn) stands at 111 % of control

Recorded T/C (compound CN(C)c1cnc(N)nc1N ): 95 % of control

The compound listed as O=S(O)Cc1ccccc1CSSSCc1ccccc1CS(=O)O has a reported T/C of 114 % of control

response.value for Cc1ccc(CN2CCN(Cc3ccc(C)o3)C(C)C2)o1 (stereo not drawn) (field: T/C) = 101 % of control

Value of measured T/C for the entry CCOC(=O)C(C)P(=O)(OC)OC (stereo not drawn) : 98 % of control

# compound CC(C(=O)N1CCCC1)C(O)c1ccccc1 (stereo not drawn) ; its T/C = 107 % of control

Documented T/C of CN(C)C(=O)COC(C(=O)N(C)C)C(OCC(=O)N(C)C)C(=O)N(C)C (stereo not drawn) : 95 % of control

Sample COc1cc(NCCN)c2ncsc2c1 ; T/C observed: 102 % of control

Recorded result, CCC(=O)Cc1nc2nnc(N)n2nc1CC(=O)CC , T/C: 107 % of control

T/C in this record for Cc1cccc(CNc2cccc(C)n2)n1 : 97 % of control

Given item O=C([O-])CCNC1OC(CO)C(O)C(O)C1O.O=C([O-])CCNC1OC(CO)C(O)C(O)C1O.[Pd+2] (stereo not drawn) , the value recorded as its T/C is 102 % of control

According to the records, this compound O=C(O)CC(C(=O)O)S(=O)CP(=O)(O)O (stereo not drawn) displays T/C of 103 % of control

* * *

Test system: P388 leukemia ip, CD2F1 mice, survival T/C
Experiment: NCI In Vivo Anticancer Drug Screen. Data for tumor model P388 Leukemia (intraperitoneal) in CD2F1 (CDF1) mice
Details: endpoint: median survival time; dose: 100.0 mg/kg/injection; schedule: Q01DX009 (ip); vehicle: Klucel (hydroxypropylcellulose) (HPC); higher = longer survival
Toxic doses and inconclusive results are not listed.
parameter: T/C

Lab book: T/C of CCOC(=O)c1ccc(NC(C)=NC(C)(C)C)cc1 noted as 91 % of control

The recorded T/C for entry COC(=O)C1(Br)CCC1(Br)C(=O)OC (stereo unspecified) equals 109 % of control

// CCSC(=O)c1ccc(S(=O)(=O)CC)cc1 : T/C value = 98 % of control

For NC(=O)NC1(C(=O)O)CCCC1 the compound record lists T/C as 103 % of control

T/C in this record for COc1cc(OC)c2[nH]c3c(c(=O)c2c1)C(=O)c1[nH]c2c(OC)cc(OC)cc2c(=O)c1C3=O : 105 % of control

So for Nc1nc(N)sc(=S)n1 , the logged T/C turned out to be 94 % of control

GET /value?item= O=C(NCc1ccncc1)Nc1ccc(Cc2ccc(NC(=O)NCc3ccncc3)cc2)cc1 &field=T/C returns 102 % of control

Record CCOC(=O)NCNC(=O)OCC . Reported T/C: 102 % of control

The compound listed as O=C(O)c1cc(-c2ccc(O)c(O)c2)nc2cc3ccccc3cc12 has a reported T/C of 108 % of control

Sample O=C1OCc2c1cc1cc3c(cc1c2-c1ccc2c(c1)OCO2)OCO3 ; T/C observed: 98 % of control

The reported T/C of the compound C(=Nc1ccc(N=Cc2ccccc2P(c2ccccc2)c2ccccc2)cc1)c1ccccc1P(c1ccccc1)c1ccccc1 was 99 % of control

* * *

Provide the reported T/C of each item.
Tested on: P388 leukemia ip, CD2F1 mice, survival T/C
Experiment: NCI In Vivo Anticancer Drug Screen. Data for tumor model P388 Leukemia (intraperitoneal) in CD2F1 (CDF1) mice
Details: endpoint: median survival time; dose: 15.0 mg/kg/injection; schedule: Q01DX005 (ip); vehicle: Klucel (hydroxypropylcellulose) (HPC); higher = longer survival
Inconclusive results and toxic doses are left out.

T/C reading for CS/N=C(\c1ccccc1)N(C)C : 100 % of control

Recorded T/C (compound COc1ccc(OC)c(NC(=O)C2=C(C)NC(C)=C(C(=O)Nc3cc(OC)ccc3OC)C2c2cccc([N+](=O)[O-])c2)c1 ): 94 % of control

Record summary for CC(=O)O[C@H]1C[C@@H]2C(COC(=O)CC(C)C)=CO[C@@H](OC(=O)CC(C)C)[C@@H]2[C@@]12CO2 : reported T/C = 88 % of control

Lookup result for CC1(C)C=C(O)C(=O)C(O)=C1 ; measured T/C: 102 % of control

Sample O=C1c2cccc(O)c2C(=O)c2c1cc(CO)c(-c1c(CO)cc3c(c1O)C(=O)c1c(O)cccc1C3=O)c2O ; T/C observed: 99 % of control

T/C recorded for this compound, Cc1ccc(Cl)cc1NC(=O)OCCN(C)C(=O)Nc1cc(Cl)ccc1C , is 98 % of control

* * *

System: P388 leukemia ip, CD2F1 mice, survival T/C
Test: NCI In Vivo Anticancer Drug Screen. Data for tumor model P388 Leukemia (intraperitoneal) in CD2F1 (CDF1) mice
Settings: endpoint: median survival time; dose: 100.0 mg/kg/injection; schedule: Q01DX005 (ip); vehicle: saline with Tween-80; higher = longer survival
Toxic doses and inconclusive results are not listed.
parameter: T/C

Query CCCCN(CC(O)c1cc2c(c3ccccc13)CCCC2)c1ccc(OC)cc1 (configuration not stated) yields T/C of 101 % of control

The recorded T/C for entry N#Cc1cccc(C(N)=O)c1C(N)=O equals 98 % of control

Reported T/C for CC(C)CC(NCc1ccccc1)C(=O)O (configuration not stated) was 100 % of control

The recorded T/C for entry CCN(Cc1cccc(S(=O)(=O)O)c1)c1ccc(C(=C2C=CC(=[N+](CC)Cc3cccc(S(=O)(=O)O)c3)C=C2)c2ccc(O)c(S(=O)(=O)O)c2)cc1 equals 99 % of control

Record CC1=NN(C(=O)NS(=O)(=O)c2ccc(CCNC(=O)c3nccnc3N)cc2)C(C)(C)C1 , field T/C: 105 % of control

Just so you know, measured T/C for CCCCN1C=C(C)N(CCCC)CC1 came out at 116 % of control

Sample CC1=N[N+](C)(C)C([O-])=C1C ; T/C observed: 97 % of control

Notebook: Cc1noc(N)c1Sc1ccc(Br)cc1 , T/C read as 100 % of control

For this molecule ( O=C1c2ccccc2CCC12OC2c1ccc([N+](=O)[O-])cc1 (configuration not stated) ), measured T/C is 110 % of control

# T/C (molecule: COC(=O)c1c(OC)cc2c(Cl)c3c(c(O)c2c1C)C(=O)[C@@]1(O)C(=O)C=C(OC)[C@H](O)[C@@]1(O)C3=O ) is 104 % of control

# T/C of CN(C)C1C2(C)CCC(C2)C1(C)C (configuration not stated) = 102 % of control

O=[N+]([O-])c1ccc(/C=C/S(=O)(=O)/C=C\c2ccccc2)cc1 yielded T/C of 97 % of control

So, N#CC(c1c(Cl)cccc1N1CCCCC1)N1CCCCC1 (configuration not stated) ? Its T/C was 104 % of control

T/C measured on O=C(O)C(=Cc1c2ccccc2cc2ccccc12)C(=O)O = 99 % of control

Form field T/C, entry C=C1C[C@@]2(OC)OCC[C@H]3C(C)=CCC(C1=O)[C@]32C(=O)OC (some centres not stated) : 105 % of control

Query CCn1c2ccc(N=C=O)cc2c2c3[nH]c(=O)c4cccn4c3ccc21 yields T/C of 88 % of control

Lab note: measured T/C of COC(=O)C(O)CC1=CC[C@@H]2CC=C[C@H]12 (some centres not stated) was 104 % of control

Entry C=CCOc1cc2c(cc1C/C=C/c1ccccc1)OCO2 , T/C reported as 103 % of control

Measured T/C of COCCn1nc(-c2ccc(Cl)cc2)c(-c2ccc(Cl)cc2)c(C(C)=O)c1=O : 100 % of control

molecule Cn1c2c(c(=O)n(C)c1=O)CN(Cc1ccccc1)CN2 , T/C observed: 95 % of control

Record CC(CCC(=O)O)(c1ccc(OC(=O)Nc2ccc(Br)cc2)cc1)c1ccc(OC(=O)Nc2ccc(Br)cc2)cc1 . Reported T/C: 97 % of control

The molecule listed as CC(NC(=O)C1CCCN1C(=O)OCc1ccccc1)C(=O)O (configuration not stated) shows T/C equal to 100 % of control
